meta.source: PubChem BioAssay AID1556

# System: metallo-beta-lactamase IMP-1 (Pseudomonas aeruginosa)
# assay_overview: inhibition of IMP-1 nitrocefin hydrolysis – biochemical, epi-absorbance readout, Pseudomonas aeruginosa enzyme, primary screen (AID 1556);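 note: 0% = IMP-1 with DMSO and 100% = DMSO wells lacking enzyme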
# experimental_conditions: purified IMP-1, nitrocefin hydrolysis, epi-absorbance fluorescence; at 5.6 µM; active compounds read high
The campaign covered roughly 290,000 compounds. About 1,300 (0.45%) were called active. Shown is part of a subset that was picked to be rich in actives.
So I've got a bunch of molecules here, and I need their inhibition values.

molecule	inhibition
CCCCn1c(=O)c(C(=O)Nc2ccccc2Cl)c(O)c2ccccc21	-1.42% (inactive)
CC1(C)C(c2ccccc2)=NC(c2cccnc2)=[N+]1[O-]	-4.75% (inactive)
Cc1ccc(C)c(NC2=NCCCS2)c1	-1.87% (inactive)
CCOC(=O)C1SC2(C(F)(F)C(F)F)CC1(O)c1c(c(OC)c3occc3c1OC)O2 (stereo not given)	-3.5% (inactive)

Consider the additional molecule presented here.
[in] State its inhibition for this molecule: O=C(O)c1ccccc1NC(=O)C1C2CCC(O2)C1C(=O)O (stereo not given)
[out] -2.48% (inactive)
